# System name: human TIM3, full length, on cells (human, UniProt Q8TDQ0 22-301)
# Test: cell-based or functional assay
Assignment: determine reported IFNgamma release in MLR, % of rec hu IL-2 control, 40 µg/ml for the given binders.
Kindly provide the numeric value in % only, without the unit symbol.

The measured IFNgamma release in MLR, % of rec hu IL-2 control, 40 µg/ml associated with anti-TIM3 antibody Tim3_0030 (antibody, V domains shown, Mouse monoclonal from hybridoma) VH: QIQLVQSGPELKKPGETVKISCKASGYPFSEYSIHWVKQAPGKGLKWMVYVNTETGQPIVGDDFRGRFVLSLETSASTAYLQINNLKNEDTATYFCGGGGYPAYWGQGTLVTVSA VL: DVLMTQTPLSLPVSLGDQASISCRSSRSIVHSSGNTYLEWYLQKPGQSPKLLIYKVSNRFSGVPDRFSGSGSGTDFTLNISRVEAEDLGVYYCFQDSHVPFTFGTGTKLEIK reads 14

The measured IFNgamma release in MLR, % of rec hu IL-2 control, 40 µg/ml associated with anti-TIM3 antibody Tim3_0038 (antibody, V domains shown, Mouse monoclonal from hybridoma) VH: EVQLQQSGAEPLKPGASVKLTCTTSGFNIKDYYIHWVKQRSDQGLEWIGRIDPEDGELIYAPKFQDKATITVDTSSNIAYLQLNSLTSEDTAVYYCSRDHGYVGWFAYWGQGTLVTVSA VL: NVVMTQSPKSMIMSVGQRVTLNCKASENVDTYVSWYQQKPEQSPKLLIYGASNRYTGVPDRFTGSRSATDFTLTISSVQAEDLAVYYCGQSYSYPWTFGGGTKLEFR reads 51

The measured IFNgamma release in MLR, % of rec hu IL-2 control, 40 µg/ml associated with anti-TIM3 antibody Tim3_0016 variant (Tim3_0018) (antibody, V domains shown, Mouse monoclonal from hybridoma; also called TIM3-0016 variant (0018); Tim3_0016 variant 0018-A488) VH: QVTLKESGPGILQPSQTLSLTCSFSGFSLSTSGMSVGWIRQPSGKGLEWLAHIWLNDDVFFNPALKRRLTISKDTSNNQVFLQIASVVTADTATYYCVRANGYLYALDYWGQGISVTVSS VL: QIVLTQSPAIMSASPGQKVTITCSASSSVNYTQWYQQKLGSSPKLWIYDAFKLAPGVPARFSGSGTGTSYSLTISSMEAEDAASYFCHQWSSYPWTFGGGTKLEIK reads 36
